- test details: Selectivity ratio of IC50 for mouse L929 cells to IC50 for human HeLa cells
- Type: toxicity
- assay setup: L929 cells versus HeLa cells, read-out: Ratio IC50
measured endpoint: selectivity ratio

INSERT INTO measurements (chemical_smiles, measured_endpoint, value) VALUES
  ('Cn1c[n+](CC(=O)c2cccs2)c2c1C(=O)c1ccccc1C2=O', 'selectivity ratio', 3.27),
  ('O=C(C[n+]1cn(C2CC2)c2c1C(=O)c1ccccc1C2=O)c1ccc([N+](=O)[O-])cc1', 'selectivity ratio', 0.27),
  ('CC(C)Cn1c[n+](CC(=O)C(C)(C)C)c2c1C(=O)c1ccccc1C2=O', 'selectivity ratio', 1.11);

---

- test details: Selectivity ratio of IC50 for mouse L929 cells to IC50 for human HeLa cells
- Type: toxicity
- assay setup: L929 cells versus HeLa cells, read-out: Ratio IC50
Classify by selectivity ratio. Ranges: label 0 = under 2, label 1 = from 2 up to 5, label 2 = 5 and over

INSERT INTO measurements (chemical_smiles, answer_label) VALUES
  ('Cn1c[n+](CC(=O)c2ccc(Cl)cc2)c2c1C(=O)c1ccccc1C2=O', 'label 1'),
  ('Cn1c[n+](CC(=O)c2ccc(Br)cc2)c2c1C(=O)c1ccccc1C2=O', 'label 1'),
  ('C#CCn1c[n+](CC(=O)c2ccc([N+](=O)[O-])cc2)c2c1C(=O)c1ccccc1C2=O', 'label 0'),
  ('CCCn1c[n+](CC(=O)c2ccc([N+](=O)[O-])cc2)c2c1C(=O)c1ccccc1C2=O', 'label 1'),
  ('CC(C)Cn1c[n+](CC(=O)c2ccc(Cl)cc2)c2c1C(=O)c1ccccc1C2=O', 'label 1'),
  ('Cn1c[n+](CC(=O)c2ccccc2)c2c1C(=O)c1ccccc1C2=O', 'label 2'),
  ('O=C(C[n+]1cn(-c2ccccc2)c2c1C(=O)c1ccccc1C2=O)c1ccc([N+](=O)[O-])cc1', 'label 0'),
  ('COCCn1c[n+](CC(=O)c2ccc([N+](=O)[O-])cc2)c2c1C(=O)c1ccccc1C2=O', 'label 2'),
  ('CC(C)Cn1c[n+](CC(=O)c2ccc(Br)cc2)c2c1C(=O)c1ccccc1C2=O', 'label 2');

---

- test details: Selectivity ratio of IC50 for mouse L929 cells to IC50 for human HeLa cells
- Type: toxicity
- assay setup: L929 cells versus HeLa cells, read-out: Ratio IC50
Classify by selectivity ratio. Ranges: low: < 3; medium: ≥ 3 and < 6; high: ≥ 6

INSERT INTO assay_data (chemical_smiles, answer_label) VALUES
  ('CC(C)Cn1c[n+](CC(=O)c2ccc([N+](=O)[O-])cc2)c2c1C(=O)c1ccccc1C2=O', 'low'),
  ('Cn1c[n+](CC(=O)c2cccc([N+](=O)[O-])c2)c2c1C(=O)c1ccccc1C2=O', 'medium'),
  ('COc1ccc(C(=O)C[n+]2cn(CC(C)C)c3c2C(=O)c2ccccc2C3=O)cc1', 'high'),
  ('CC(C)Cn1c[n+](CC(=O)c2ccc3ccccc3c2)c2c1C(=O)c1ccccc1C2=O', 'medium'),
  ('CCn1c[n+](CC(=O)c2ccc([N+](=O)[O-])cc2)c2c1C(=O)c1ccccc1C2=O', 'medium'),
  ('CC(C)Cn1c[n+](CC(=O)N(C)C)c2c1C(=O)c1ccccc1C2=O', 'medium'),
  ('COc1ccc(C(=O)C[n+]2cn(C)c3c2C(=O)c2ccccc2C3=O)cc1', 'high'),
  ('CC(C)c1cccc(C(C)C)c1-n1c[n+](CC(=O)c2ccc([N+](=O)[O-])cc2)c2c1C(=O)c1ccccc1C2=O', 'low'),
  ('CC(C)Cn1c[n+](CC(=O)c2ccco2)c2c1C(=O)c1ccccc1C2=O', 'high'),
  ('Cn1c[n+](CC(=O)c2ccc(C(F)(F)F)cc2)c2c1C(=O)c1ccccc1C2=O', 'low'),
  ('Cn1c[n+](CC(=O)c2ccco2)c2c1C(=O)c1ccccc1C2=O', 'low'),
  ('Cn1c[n+](CC(=O)c2ccc3ccccc3c2)c2c1C(=O)c1ccccc1C2=O', 'medium'),
  ('Cc1cc(C)c(-n2c[n+](CC(=O)c3ccc([N+](=O)[O-])cc3)c3c2C(=O)c2ccccc2C3=O)c(C)c1', 'low'),
  ('Cn1c[n+](CC(=O)c2ccccc2[N+](=O)[O-])c2c1C(=O)c1ccccc1C2=O', 'medium'),
  ('CN(C)C(=O)C[n+]1cn(C)c2c1C(=O)c1ccccc1C2=O', 'high'),
  ('CC(C)Cn1c[n+](CC(=O)c2cccs2)c2c1C(=O)c1ccccc1C2=O.[Br-]', 'high'),
  ('Cn1c[n+](CC(=O)C(C)(C)C)c2c1C(=O)c1ccccc1C2=O', 'medium');

---

- test details: Selectivity ratio of IC50 for mouse L929 cells to IC50 for human MCF7 cells
- Format: toxicity
- assay setup: L929 cells versus MCF7 cells, read-out: Ratio IC50
measured endpoint: selectivity ratio

INSERT INTO assay_data (chemical_smiles, value) VALUES
  ('Cn1c[n+](CC(=O)C(C)(C)C)c2c1C(=O)c1ccccc1C2=O', 3.61),
  ('CC(C)c1cccc(C(C)C)c1-n1c[n+](CC(=O)c2ccc([N+](=O)[O-])cc2)c2c1C(=O)c1ccccc1C2=O', 0.97),
  ('Cn1c[n+](CC(=O)c2ccc(Br)cc2)c2c1C(=O)c1ccccc1C2=O', 2.84),
  ('COc1ccc(C(=O)C[n+]2cn(C)c3c2C(=O)c2ccccc2C3=O)cc1', 16.5),
  ('CC(C)Cn1c[n+](CC(=O)N(C)C)c2c1C(=O)c1ccccc1C2=O', 0.9),
  ('CC(C)Cn1c[n+](CC(=O)c2ccc(Br)cc2)c2c1C(=O)c1ccccc1C2=O', 22.5),
  ('CC(C)Cn1c[n+](CC(=O)c2ccc(Cl)cc2)c2c1C(=O)c1ccccc1C2=O', 14.2),
  ('CC(C)Cn1c[n+](CC(=O)c2cccc([N+](=O)[O-])c2)c2c1C(=O)c1ccccc1C2=O', 5.79),
  ('O=C(C[n+]1cn(C2CC2)c2c1C(=O)c1ccccc1C2=O)c1ccc([N+](=O)[O-])cc1', 0.1),
  ('Cc1ccc(C(=O)C[n+]2cn(C)c3c2C(=O)c2ccccc2C3=O)cc1', 24.5),
  ('CC(C)Cn1c[n+](CC(=O)c2ccco2)c2c1C(=O)c1ccccc1C2=O', 26.6),
  ('COc1ccc(C(=O)C[n+]2cn(CC(C)C)c3c2C(=O)c2ccccc2C3=O)cc1', 7.42),
  ('Cn1c[n+](CC(=O)c2ccc(C(F)(F)F)cc2)c2c1C(=O)c1ccccc1C2=O', 2.61),
  ('CC(C)Cn1c[n+](CC(=O)c2ccc3ccccc3c2)c2c1C(=O)c1ccccc1C2=O', 6.56),
  ('Cn1c[n+](CC(=O)c2ccc3ccccc3c2)c2c1C(=O)c1ccccc1C2=O', 1.81),
  ('Cn1c[n+](CC(=O)c2ccco2)c2c1C(=O)c1ccccc1C2=O', 9.71),
  ('CC(C)Cn1c[n+](CC(=O)C(C)(C)C)c2c1C(=O)c1ccccc1C2=O', 1),
  ('Cc1cc(C)c(-n2c[n+](CC(=O)c3ccc([N+](=O)[O-])cc3)c3c2C(=O)c2ccccc2C3=O)c(C)c1', 1.99),
  ('CC(C)Cn1c[n+](CC(=O)c2ccccc2)c2c1C(=O)c1ccccc1C2=O', 5.19);

---

- test details: Selectivity ratio of IC50 for mouse L929 cells to IC50 for human A549 cells
- Format: toxicity
- assay setup: L929 cells versus A549 cells, read-out: Ratio IC50
Recorded selectivity ratio values for a group of compounds are listed next.
measured endpoint: selectivity ratio

INSERT INTO results (chemical_smiles, value) VALUES
  ('CC(C)c1cccc(C(C)C)c1-n1c[n+](CC(=O)c2ccc([N+](=O)[O-])cc2)c2c1C(=O)c1ccccc1C2=O', 1.74),
  ('CCCCn1c[n+](CC(=O)c2ccc([N+](=O)[O-])cc2)c2c1C(=O)c1ccccc1C2=O', 8),
  ('Cn1c[n+](CC(=O)c2ccc(C(F)(F)F)cc2)c2c1C(=O)c1ccccc1C2=O', 14.9),
  ('O=C(C[n+]1cn(-c2ccccc2)c2c1C(=O)c1ccccc1C2=O)c1ccc([N+](=O)[O-])cc1', 0.77),
  ('Cc1ccc(C(=O)C[n+]2cn(CC(C)C)c3c2C(=O)c2ccccc2C3=O)cc1', 13.7),
  ('Cn1c[n+](CC(=O)c2ccccc2)c2c1C(=O)c1ccccc1C2=O', 71.2),
  ('Cc1ccc(C(=O)C[n+]2cn(C)c3c2C(=O)c2ccccc2C3=O)cc1', 91.9),
  ('CCn1c[n+](CC(=O)c2ccc([N+](=O)[O-])cc2)c2c1C(=O)c1ccccc1C2=O', 13.2),
  ('Cn1c[n+](CC(=O)c2ccc(F)cc2)c2c1C(=O)c1ccccc1C2=O', 12.1);
